tested on: Hepatitis B virus; assay: Effective concentration against hepatitis B virus; type: functional, organism-based
READOUT NAME: EC50 (nM)
# unit: nM | format: bare number

**Query** Record request: EC50 value, item Cc1cn([C@@H]2O[C@H](CO)[C@@H](O)[C@@H]2F)c(=O)[nH]c1=O [5-METHYL-2'-FLUOROARAURACIL]
**Result** 130
